Please provide measured pIC50 for the entries that follow.
Target: Alpha-2C adrenergic receptor (Homo sapiens)
Sequence (P18825 whole entry): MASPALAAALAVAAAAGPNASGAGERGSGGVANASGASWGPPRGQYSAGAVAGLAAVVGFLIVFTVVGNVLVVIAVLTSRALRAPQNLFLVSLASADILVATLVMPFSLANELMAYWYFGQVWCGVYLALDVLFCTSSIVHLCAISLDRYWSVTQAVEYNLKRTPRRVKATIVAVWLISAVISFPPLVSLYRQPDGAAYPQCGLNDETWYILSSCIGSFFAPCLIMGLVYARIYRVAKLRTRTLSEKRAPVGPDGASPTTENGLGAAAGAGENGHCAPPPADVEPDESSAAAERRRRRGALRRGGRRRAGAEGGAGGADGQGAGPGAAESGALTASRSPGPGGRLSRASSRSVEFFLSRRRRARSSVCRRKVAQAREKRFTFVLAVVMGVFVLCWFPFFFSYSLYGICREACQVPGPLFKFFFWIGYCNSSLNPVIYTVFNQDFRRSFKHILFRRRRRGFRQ
Test: DRUGMATRIX: Adrenergic Alpha-2C radioligand binding (ligand: [3H] MK-912); note: call rule not given here
Assay type: cell membranes, Sf9, Membrane
Conditions: read-out: IC50
Numbers only, as −log10 of the molar value.

Molecule: C#C[C@]1(O)CC[C@H]2[C@@H]3CCC4=Cc5oncc5C[C@]4(C)[C@H]3CC[C@@]21C [DANAZOL]
Experimental Target: Alpha-2C adrenergic receptor (Homo sapiens)
Readout Type: pIC50
Recorded Result: 4.62

Field pIC50 (entry C[C@@H]1C[C@H]2[C@@H]3CCC4=CC(=O)C=C[C@]4(C)C3=CC[C@]2(C)[C@H]1C(=O)CN1CCN(c2cc(N3CCCC3)nc(N3CCCC3)n2)CC1 [TIRILAZAD] ) reads 5.10
